The following compounds have recorded log10(GI50) on MDA-MB468.
Endpoint: log10(GI50) (log10 of the value in nM)

>>> assay_value("COc1ccccc1C(=O)/C=C/c1cc2ccccc2[nH]c1=O")
2.51
>>> assay_value("COc1ccc2[nH]c(=O)c(/C=C/C(=O)c3ccccc3OC)cc2c1")
2.61
>>> assay_value("COC(=O)Nc1nc2ccc(C(=O)c3cccs3)cc2[nH]1 [Noco, Nocodazole, reference compound]")
1.68
>>> assay_value("CCOc1ccccc1C(=O)/C=C/c1cc2ccccc2[nH]c1=O")
1.41
>>> assay_value("CCOc1ccccc1C(=O)/C=C/c1cc2cc(OC)ccc2[nH]c1=O")
1.89
>>> assay_value("CC(=O)O[C@H]1C(=O)[C@@]2(C)[C@H]([C@H](OC(=O)c3ccccc3)[C@]3(O)C[C@H](OC(=O)[C@H](O)[C@@H](NC(=O)c4ccccc4)c4ccccc4)C(C)=C1C3(C)C)[C@]1(OC(C)=O)CO[C@@H]1C[C@@H]2O [Tax, paclitaxel, reference compound]")
0.95
>>> assay_value("COc1ccccc1C(=O)/C=C/c1cc2cc(C)ccc2[nH]c1=O")
2.48
>>> assay_value("COc1ccc2cc(/C=C/C(=O)c3ccccc3OC)c(=O)[nH]c2c1")
3.55
>>> assay_value("COc1ccccc1C(=O)/C=C/c1cc2cccc(OC)c2[nH]c1=O")
1.46
